System: HCV/HIV pseudovirions
Experiment: microbe, parasite or virus in culture
Type: cell-based, hepatitis C virus
Conditions: 20 μg/mL; Enzyme Hydrolysis Processing Time 0.5 hours
Property Label: HCV Inhibition at 20 μg/mL

Guide cases for HCV Inhibition at 20 μg/mL, answers given:
Molecule | HCV Inhibition at 20 μg/mL
O=C(C=Cc1ccc(O)cc1)OCC1=CC(O)C2C=COC(O)C12 (mixture of isomers) | 46.6
CC1C(O)CC2C(C(=O)O)=COC(O)C21 (mixture of isomers) | 39.4
COC(=O)C1=COC(O)C2C1C(O)CC2(C)O (mixture of isomers) | 49.0

API: the following record is the query input.
Incoming: Find the measured HCV Inhibition at 20 μg/mL of COC(=O)C1=COC(O)C2C1CC(O)C2C (mixture of isomers) and report it.
Outgoing: 24.8

Just for reference, patent US20080319042A1 is where these values come from.
